Cited source: patent US10259810B2

# assayed_target: ΔF508-CFTR (Homo sapiens, UniProt P13569, DEL508-508)
# Construct: host or cells: CFBE41o-, doxycycline-inducible
# Sequence (P13569 with tags, fused parts or gaps DEL508-508): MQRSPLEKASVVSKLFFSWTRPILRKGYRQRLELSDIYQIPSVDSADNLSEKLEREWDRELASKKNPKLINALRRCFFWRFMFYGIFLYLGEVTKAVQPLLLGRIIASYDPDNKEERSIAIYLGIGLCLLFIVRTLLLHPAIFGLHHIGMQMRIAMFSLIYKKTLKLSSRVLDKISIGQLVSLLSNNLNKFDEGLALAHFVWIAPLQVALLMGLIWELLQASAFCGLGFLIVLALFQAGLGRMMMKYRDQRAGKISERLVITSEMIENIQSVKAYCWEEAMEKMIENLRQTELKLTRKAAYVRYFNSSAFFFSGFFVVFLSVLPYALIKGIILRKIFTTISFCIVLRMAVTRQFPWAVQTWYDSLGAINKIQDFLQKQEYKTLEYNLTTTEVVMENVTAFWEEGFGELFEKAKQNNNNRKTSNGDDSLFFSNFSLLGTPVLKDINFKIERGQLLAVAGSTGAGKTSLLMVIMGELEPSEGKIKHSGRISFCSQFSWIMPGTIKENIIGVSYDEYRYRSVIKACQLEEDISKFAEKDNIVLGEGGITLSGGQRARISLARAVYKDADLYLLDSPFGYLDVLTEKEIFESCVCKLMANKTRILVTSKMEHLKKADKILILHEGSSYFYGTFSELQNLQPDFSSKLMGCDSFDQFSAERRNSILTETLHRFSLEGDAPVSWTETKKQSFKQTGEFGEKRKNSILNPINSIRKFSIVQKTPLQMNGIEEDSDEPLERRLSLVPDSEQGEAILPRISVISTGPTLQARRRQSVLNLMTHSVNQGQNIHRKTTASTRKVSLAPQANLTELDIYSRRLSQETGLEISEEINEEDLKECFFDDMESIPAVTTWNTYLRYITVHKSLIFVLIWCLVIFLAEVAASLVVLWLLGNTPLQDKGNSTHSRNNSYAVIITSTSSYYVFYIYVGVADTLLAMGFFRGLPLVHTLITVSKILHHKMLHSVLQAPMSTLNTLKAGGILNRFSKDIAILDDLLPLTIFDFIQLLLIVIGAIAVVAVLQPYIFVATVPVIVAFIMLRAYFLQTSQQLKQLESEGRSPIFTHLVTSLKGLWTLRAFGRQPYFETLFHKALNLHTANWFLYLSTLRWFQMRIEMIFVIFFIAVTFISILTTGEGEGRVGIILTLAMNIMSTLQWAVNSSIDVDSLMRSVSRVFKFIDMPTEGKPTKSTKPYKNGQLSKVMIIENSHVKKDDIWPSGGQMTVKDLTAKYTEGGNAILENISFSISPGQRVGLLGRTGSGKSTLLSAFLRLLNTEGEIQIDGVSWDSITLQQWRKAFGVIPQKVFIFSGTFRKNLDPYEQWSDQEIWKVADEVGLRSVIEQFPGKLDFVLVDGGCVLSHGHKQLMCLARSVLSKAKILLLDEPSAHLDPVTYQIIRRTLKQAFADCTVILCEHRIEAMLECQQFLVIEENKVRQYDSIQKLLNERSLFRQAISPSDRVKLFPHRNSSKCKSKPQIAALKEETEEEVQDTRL
# protocol: CFTR cell surface levels using HRP-tagged ΔF508-CFTR expressing CFBE cells, intrinsic corrector capacity
# Type: cell-based
# condition_info: HRP-tagged ΔF508-CFTR expressing CFBE41o- cells; compound alone (intrinsic corrector capacity); 20 hours at 33° C.; read-out: EC50
property: pEC50
Here pEC50 is given on a logarithmic scale as minus log10 of the concentration in mol/L.

| molecular_string | assayed_target | property | number |
| --- | --- | --- | --- |
| COC1CCN(Cc2ccc(-c3cc(C(=O)NS(C)(=O)=O)nc4c3c(OC(C)C)nn4C3CCCCC3)cc2)CC1 | ΔF508-CFTR (Homo sapiens, UniProt P13569, DEL508-508) | pEC50 | 6.81 |
| CN(C1CCOCC1)S(=O)(=O)NC(=O)c1cc(N2CCC(N3CCOCC3)CC2)c2c(C3CCC3)nn(-c3ccc(F)cc3)c2n1 | ΔF508-CFTR (Homo sapiens, UniProt P13569, DEL508-508) | pEC50 | 6.42 |
| COC1CN(C2CCN(c3cc(C(=O)NS(C)(=O)=O)nc4c3c(C3CCC3)nn4-c3ccc(F)cc3)CC2)C1 | ΔF508-CFTR (Homo sapiens, UniProt P13569, DEL508-508) | pEC50 | 5.91 |
| CS(=O)(=O)NC(=O)c1cc(N2CCCC3(CC3)C2)c2c(C3CCC3)nn(-c3ccccc3)c2n1 | ΔF508-CFTR (Homo sapiens, UniProt P13569, DEL508-508) | pEC50 | 6.02 |
| O=C(c1cc(N2CCC(CN3CCCC3)CC2)c2c(C3CCC3)nn(-c3ccccc3)c2n1)N1CCCCS1(=O)=O | ΔF508-CFTR (Homo sapiens, UniProt P13569, DEL508-508) | pEC50 | 6.63 |
| CN(C)C[C@@H](F)C1CCN(c2cc(C(=O)NS(C)(=O)=O)nc3c2c(C2CCC2)nn3-c2ccccc2)CC1 | ΔF508-CFTR (Homo sapiens, UniProt P13569, DEL508-508) | pEC50 | 6.12 |

Q: Answer with reported pEC50 of CC(C)Oc1nn(C2CCCCC2)c2nc(C(=O)NS(C)(=O)=O)cc(-c3ccc(CN4CCOCC4)cc3)c12
Ans: 6.73

Q: Answer with reported pEC50 of CCOC(=O)N1CCN(c2cc(C(=O)NS(=O)(=O)NC)nc3c2c(C2CCC2)nn3-c2ccc(F)cc2)CC1
Ans: 6.47

Q: Answer with reported pEC50 of CC(C)N(C)S(=O)(=O)NC(=O)c1cc(N2CCC(N3CCOCC3)CC2)c2c(C3CCC3)nn(-c3ccc(F)cc3)c2n1
Ans: 7.05

Q: Answer with reported pEC50 of CONS(=O)(=O)NC(=O)c1cc(N2CCC(N3CCOCC3)CC2)c2c(C3CCC3)nn(-c3ccc(F)cc3)c2n1
Ans: 6.74

Q: Answer with reported pEC50 of COCC1CCN(c2cc(C(=O)NS(=O)(=O)CCN(C)C)nc3c2c(C2CCC2)nn3-c2ccccc2)CC1
Ans: 6.25

Q: Answer with reported pEC50 of CS(=O)(=O)NC(=O)c1cc(C2CCN(C3CCOCC3)CC2)c2c(C3CCC3)nn(-c3ccc(F)cc3)c2n1
Ans: 6.48

Q: Answer with reported pEC50 of CC(C)c1nn(-c2ccc(F)cc2)c2nc(C(=O)NS(C)(=O)=O)cc(OCCN(C(C)C)C3COC3)c12
Ans: 6.35

Q: Answer with reported pEC50 of CC(C)c1nn(-c2cccc(N3CCOCC3)c2)c2nc(C(=O)NS(C)(=O)=O)cc(-c3ccc(N(C)C4CCOCC4)nc3)c12
Ans: 6.39
